test system: testosterone 5α-reductase prepared from rat prostates; test: Testosterone 5α-reductase assay ([1,2,6,7-3H]testosterone as substrate); conditions: rat prostatic testosterone 5α-reductase
Recorded Metric: 5α-reductase inhibitory activity in words

Compound	Result
CC(=O)[C@H]1CC[C@H]2[C@@H]3CCC4NC(=O)C=C[C@]4(C)[C@H]3CC[C@]12C (some centres unmarked)	potent inhibition
CC(=O)[C@H]1CC[C@H]2[C@@H]3CCC4NC(=O)CC[C@]4(C)[C@H]3CC[C@]12C (some centres unmarked)	potent inhibition
CC(=O)C1CCC2C3CC4OC45CC(O)CCC5(C)C3CCC12C (centres unmarked)	no inhibition
CC(=NO)[C@H]1CC[C@H]2[C@@H]3CCC4NC(=O)CC[C@]4(C)[C@H]3CC[C@]12C (some centres unmarked)	potent inhibition
CC(=NO)C1CCC2C3CC4OC45CC(O)CCC5(C)C3CCC12C (centres unmarked)	no inhibition
CC(=O)O[C@H]1CC[C@@]2(C)C(=CCC3C2CC[C@@]2(C)C3CC[C@@H]2C(C)=NO)C1 (some centres unmarked)	no inhibition
CC(=O)[C@H]1CC[C@H]2[C@@H]3CC=C4NC(=O)CC[C@]4(C)[C@H]3CC[C@]12C	moderate inhibition
CC(=O)[C@H]1CC[C@H]2[C@@H]3C=CC4=CC(=O)[C@@H]5O[C@@H]5[C@]4(C)[C@H]3CC[C@]12C	no inhibitory activity
CC(=NO)[C@H]1CC[C@H]2[C@@H]3CC=C4NC(=O)CC[C@]4(C)[C@H]3CC[C@]12C	potent inhibition
CC(=NO)[C@H]1CC[C@H]2[C@@H]3CCC4NC(=O)C=C[C@]4(C)[C@H]3CC[C@]12C (some centres unmarked)	potent inhibition
CC(=O)O[C@H]1CC[C@@]2(C)C(=CCC3C2CC[C@@]2(C)C3CC[C@@H]2C(C)=O)C1 (some centres unmarked)	no inhibition
CC(=O)[C@H]1CC[C@H]2[C@@H]3[C@@H]4O[C@@H]4C4=CC(=O)C=C[C@]4(C)[C@H]3CC[C@]12C	no inhibitory activity
CC(=O)[C@H]1CC[C@H]2[C@@H]3C=CC4=CC(=O)C=C[C@]4(C)[C@H]3CC[C@]12C	moderate inhibition

* * *

molecular target: testosterone 5α-reductase prepared from rat prostates; assay: Testosterone 5α-reductase assay ([1,2,6,7-3H]testosterone as substrate); details: read-out: IC50 (testosterone 5α-reductase inhibitory activity); rat ventral prostate enzyme suspension, pH 6.5, 37°C, 1 h; both type 1 and type 2 isozymes;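 further: conversion of tritiated testosterone to 5α-dihydrotestosterone, separated by TLC and scintillation counted, relative to enzyme control without test sample after subtracting substrate blank without enzyme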
Simple rule here: IC50 less than 30 nM is 1, otherwise 0.

Compound	Assay System	Cat
CC(=O)[C@H]1CC[C@H]2[C@@H]3CC=C4NC(=O)CC[C@]4(C)[C@H]3CC[C@]12C	testosterone 5α-reductase prepared from rat prostates	0
CC(=O)[C@H]1CC[C@H]2[C@@H]3C=CC4=CC(=O)C=C[C@]4(C)[C@H]3CC[C@]12C	testosterone 5α-reductase prepared from rat prostates	0
CC(=NO)[C@H]1CCC2C3CCC4=CC(=O)CC[C@]4(C)C3CC[C@@]21C (stereo partly drawn)	testosterone 5α-reductase prepared from rat prostates	1
CC(=NO)C1CCC2C3CC4OC45CC(O)CCC5(C)C3CCC12C (stereo not drawn)	testosterone 5α-reductase prepared from rat prostates	0
CC(=NO)[C@H]1CC[C@H]2[C@@H]3CCC4NC(=O)C=C[C@]4(C)[C@H]3CC[C@]12C (stereo partly drawn)	testosterone 5α-reductase prepared from rat prostates	1
CC(=NO)[C@H]1CC[C@H]2[C@@H]3CC=C4NC(=O)CC[C@]4(C)[C@H]3CC[C@]12C	testosterone 5α-reductase prepared from rat prostates	1
CC(=O)[C@H]1CC[C@H]2[C@@H]3[C@@H]4O[C@@H]4C4=CC(=O)C=C[C@]4(C)[C@H]3CC[C@]12C	testosterone 5α-reductase prepared from rat prostates	0
CC(=O)O[C@H]1CC[C@@]2(C)C(=CCC3C2CC[C@@]2(C)C3CC[C@@H]2C(C)=NO)C1 (stereo partly drawn)	testosterone 5α-reductase prepared from rat prostates	0
CC(=O)[C@H]1CC[C@H]2[C@@H]3CCC4=CC(=O)CC[C@]4(C)[C@H]3CC[C@]12C [Compound 1, 4-pregnene-3,20-dione, reference compound]	testosterone 5α-reductase prepared from rat prostates	1
CC(=O)O[C@H]1CC[C@@]2(C)C(=CCC3C2CC[C@@]2(C)C3CC[C@@H]2C(C)=O)C1 (stereo partly drawn)	testosterone 5α-reductase prepared from rat prostates	0
CC(=NO)[C@H]1CCC2C3CCC4=CC(=O)C=C[C@]4(C)C3CC[C@@]21C (stereo partly drawn)	testosterone 5α-reductase prepared from rat prostates	0
CC(=O)[C@H]1CC[C@H]2[C@@H]3C=CC4=CC(=O)[C@@H]5O[C@@H]5[C@]4(C)[C@H]3CC[C@]12C	testosterone 5α-reductase prepared from rat prostates	0
